Sourced from PubChem BioAssay (NCI)

system: HOP-92 NSCLC; assay: NCI-60 one-dose screen, 48 h; conditions: 10 µM unless noted
The panel holds about 83,000 compounds, 20% with a hit somewhere; the sample as a whole holds those more often. The source made the active and inactive calls. The calls were made as follows: active = growth percent below 10; inactive = the rest.
Classes used: active, inactive

compound=CCNC(=O)c1[nH]cc(-c2ccc(OC)cc2)c1-c1cc(OC)c(OC)c(OC)c1 class_label=active
compound=Cc1ccc2nc3c(cc2c1)CSc1nnc(-c2ccc[nH]c2=S)n1N3 class_label=inactive
compound="CC(C)NC(=O)N1C(=O)CCC1NNC(=O)c1ccc([N+](=O)[O-])cc1 (stereo not given)" class_label=inactive
compound=CC(C)(C#N)N1CCN(c2ccccc2Cl)CC1 class_label=inactive
compound=COc1cc(CCNc2nc3cc(N)cc(N)c3nc2-c2ccccc2)cc(OC)c1 class_label=active
compound="Cc1ccc(C2CC(c3cccc(Nc4ccncc4)c3)=NN2c2cc(Cl)cc(Cl)c2)cc1 (stereo not given)" class_label=inactive
compound=O=C(O)c1cn(C2CC2)c2cc(N3CCN(C(=O)C[n+]4cccc5ccccc54)CC3)c(F)cc2c1=O class_label=inactive
compound=CCCCCCCCCCN=C(N)N=C(N)N class_label=inactive
compound=COc1cc(C(=O)/C=C/c2c(C)n([O-])c3ccc(Cl)cc3[n+]2=O)cc(OC)c1OC class_label=active
compound=CN1CCN(c2cnc(C(=O)Nc3cc(F)cc4cccnc34)cn2)CC1 class_label=inactive

----------
tested on: SK-MEL-28 melanoma; assay: NCI-60 one-dose screen, 48 h; details: 10 µM unless noted
The panel holds about 83,000 compounds, 20% with a hit somewhere; the sample as a whole holds those more often. The source made the active and inactive calls. Rule for the calls: active = growth percent below 10; inactive = the rest.
Possible outcomes: Yes (active), No (inactive)

structure=CCCc1cc2c(cc1Br)OCO2 class_label=No
structure=Cc1[nH]n(C(=O)c2ccncc2)c(=O)c1N=Nc1ccc(F)c(Cl)c1 class_label=No
structure=O=C(O)/C=C\C(=O)N1C/C(=C\c2ccccc2Cl)C(=O)/C(=C/c2ccccc2Cl)C1 class_label=Yes
structure=C[C@@H]1CN(Cc2ccc(/C=C/c3n[nH]c4ccc5nc(-c6cn[nH]c6C(F)(F)F)c6c(c5c34)CCCC6)cc2)C[C@H](C)O1 class_label=No
structure=Cc1cn(-c2cc(C(=O)Nc3cccc(C#Cc4cccc5[nH]nc(N)c45)c3)cc(C(F)(F)F)c2)cn1 class_label=No

----------
system: OVCAR-5 ovarian; experiment: NCI-60 one-dose screen, 48 h; details: 10 µM unless noted
About 83,000 compounds went through this panel and 20% of them were active in at least one assay; those are over-represented in the sample as a whole. Active and inactive are the calls of the source. The calls were made as follows: active = growth percent below 10; inactive = the rest.
Outcome codes: active, inactive

structure=COc1ccc(C(=O)c2cc3c(N)c(C(=O)Nc4ccc(Br)cc4)sc3nc2C)cc1 class_label=inactive
structure=COc1ccc(-c2c[nH]c(C(=O)O)c2-c2cc(OC)c3c(c2OC)OCO3)cc1 class_label=inactive
structure=CC(=O)c1cccc(NS(=O)(=O)c2cccc(C(=O)Nc3ccc(Br)cc3)c2)c1 class_label=inactive
structure=COc1ccc(C(=O)/C=C/c2ccc(OCc3ccccc3)c(OC)c2)cc1OC class_label=inactive
structure=N#Cc1c(Nc2ccccc2)nn2cc(-c3nc4ccccc4s3)c(N)nc12 class_label=inactive
structure=C#CC(=O)Nc1cccc(Nc2nc3c(c(NCc4ccccc4)n2)CCCC3)c1 class_label=active
structure=COc1ccc(C(=O)c2cc(C)c(OC)c(C)c2)c(OC)c1O class_label=inactive
structure=COc1cc2nc(-c3ccc(-c4nn[nH]n4)cc3)[nH]c(=O)c2cc1OC class_label=inactive
structure=CC(C)CN(C(=O)c1ccc(Cl)cc1)c1c(N)n(CC(C)C)c(=O)[nH]c1=O class_label=inactive
structure=COc1cccc(/C=C2\COc3ccc(-c4ccccc4)cc3C2=O)c1 class_label=inactive

----------
tested on: NCI-H322M lung; test: NCI-60 one-dose screen, 48 h (100 = growth as untreated, 0 = no growth, -100 = all killed); conditions: 10 µM unless noted
About 83,000 compounds went through this panel and 20% of them were active in at least one assay; those are over-represented in the sample as a whole. Active and inactive are the calls of the source. Rule for the calls: active = growth percent below 10; inactive = the rest.
# Lookup of reported growth keyed by entry
Measured endpoint: growth

structure=CN1CCN(c2ccc3nc(-c4cc(C(C)(C)C)c(O)c(C(C)(C)C)c4)[nH]c3c2)CC1 experimental_system="NCI-H322M lung" result_value="81% (inactive)"
structure=C#Cc1cccc(NC(=O)Nc2cccc(N=C=S)c2)c1 experimental_system="NCI-H322M lung" result_value="95.1% [8.25 µM] (inactive)"
structure=O=C(Nc1nc(-c2ccc(Br)cc2)cs1)c1cc(-c2ccc(Br)cc2)nc2ccc(Cl)cc12 experimental_system="NCI-H322M lung" result_value="89.9% (inactive)"
structure=CS(=O)(=O)Nc1cc(-c2ccc3ncnc(Nc4ccc5[nH]ncc5c4)c3c2)cnc1Cl experimental_system="NCI-H322M lung" result_value="74.1% (inactive)"
structure=Cc1cc(C)c(C=O)c(C)c1 experimental_system="NCI-H322M lung" result_value="106% (inactive)"
structure=COc1cc(NCCN(CC(C)C)C2CCCC2)c2ncccc2c1 experimental_system="NCI-H322M lung" result_value="118% (inactive)"

----------
system: EKVX NSCLC; test: NCI-60 one-dose screen, 48 h; conditions: 10 µM unless noted
About 83,000 compounds went through this panel and 20% of them were active in at least one assay; those are over-represented in the sample as a whole. Calls of active or inactive are those of the source. Rule for the calls: active = growth percent below 10; inactive = the rest.
Outcomes: active, inactive

compound=COc1cc(OC)c(/C=C/C(=O)c2ccc(Nc3ncnc4ccccc34)cc2)c(OC)c1 class_label=active
compound=O=C(Nc1ccc2cc3ccc(NC(=O)N4CCCCCC4)cc3nc2c1)N1CCCCCC1 class_label=active
compound=O=S(=O)(NCCNc1nccc(-c2c(-c3ccc(F)c(O)c3)nc3occn23)n1)c1ccccc1 class_label=inactive
compound="CCCCCCCCCCCCC1CCC/C=C\\CCC(=O)O1 (stereo not given)" class_label=inactive
compound=CSc1nnc2c(=O)n(C)c(=O)n(C)c2n1 class_label=inactive
compound="Fc1ccc(C2CC(c3cccc(Nc4ccncc4)c3)=NN2c2cc(Cl)cc(Cl)c2)cc1 (stereo not given)" class_label=inactive
compound=Cc1cc2cc3cc(C)c(N)cc3[n+](C)c2cc1N class_label=inactive
compound=COc1cc(Nc2cc(O)c3c(=O)cc(-c4ccccc4)oc3c2)cc(OC)c1 class_label=inactive
compound=COc1c(Cl)cc(Cl)c2ccc(C=C3C(=O)NC(=S)NC3=O)nc12 class_label=inactive
compound=CN1CCN(CCCNc2nccc(-c3c(-c4ccc(F)c(O)c4)nc4sccn34)n2)S1(=O)=O class_label=inactive

----------
system: U251 CNS; assay: NCI-60 one-dose screen, 48 h; settings: 10 µM unless noted
This is part of a sample that, as a whole, favours compounds with a hit. Of some 83,000 tested, about 20% had one in any assay. Calls of active or inactive are those of the source. How the source made its calls: active means growth percent below 10; inactive means the rest.
Classes used: True = active, False = inactive

molecule=O=S(=O)(NCCCNc1nccc(-c2c(-c3cccc(O)c3)nc3occn23)n1)c1ccc(F)cc1 class_label=False
molecule="COc1ccc(C2CC(c3cccc(Nc4ccncc4)c3)=NN2c2ccccc2)cc1 (centres undefined)" class_label=True
molecule=CC(=O)NCCCS(=O)(=O)O class_label=False
molecule="Clc1ccc(N2N=C(c3cccc(Nc4ccncc4)c3)CC2c2ccccc2)cc1 (centres undefined)" class_label=False
molecule=O=C(N=Nc1c(O)[nH]c2ccc(F)cc12)c1cc2ccccc2[nH]1 class_label=False
molecule="CC(C)NC(=O)N1C(=O)CCC1NNC(=O)c1ccc([N+](=O)[O-])cc1 (centres undefined)" class_label=False
molecule=Clc1nc(Nc2ccccc2)nc(Nc2ccccc2)n1 class_label=False
molecule=CC[C@H](C)[C@@H]1NC(=O)[C@H](Cc2ccc(O)cc2)N(C)C(=O)[C@H](Cc2ccccc2)NC(=O)CN(C)C(=O)[C@@H]2CCCN2C(=O)[C@@H](Cc2ccccc2)N(C)C(=O)[C@H](CC(C)C)NC1=O class_label=True
molecule=CCCCCCCCOc1ccc(/C=N/Nc2cc(C)nc3ccc(Cl)cc23)cc1 class_label=True

----------
# growth annotations
system: SK-OV-3 ovarian; experiment: NCI-60 one-dose screen, 48 h (100 = growth as untreated, 0 = no growth, -100 = all killed); details: 10 µM unless noted
The panel holds about 83,000 compounds, 20% with a hit somewhere; the sample as a whole holds those more often.
Measured endpoint: growth (%)

compound=CC(C)[N+](C)(CCOC(COc1ccccc1)COc1ccccc1)C(C)C u=% result_value=105
compound=O=c1nc2n(nc1/C=C/c1ccco1)CC(c1ccc(Cl)cc1)=NN2 u=% result_value=93
compound="CCOC(=O)C1CC(=O)c2cc(OC)c(OC)cc2C1 (stereo unspecified)" u=% result_value=106
compound=BrC(Br)(Br)c1cnc2ccccc2n1 u=% result_value=69.4
compound=CC1(C)CC[C@]2(C(=O)NCC#CCN3CCOCC3)CC[C@]3(C)C(=CC[C@@H]4[C@@]5(C)Cc6c([nH]c7ccccc67)C(C)(C)[C@@H]5CC[C@]43C)[C@@H]2C1 u=% result_value=97.8
compound=Fc1ccc2nc3c(cc2c1)CSc1nnc(-c2ccc[nH]c2=S)n1N3 u=% result_value=86.9
compound="Cc1ccc(C2CC(c3cccc(Nc4ccncc4)c3)=NN2c2ccccc2)cc1 (stereo unspecified)" u=% result_value=-31.4
compound=CCCCCCCCOC(=O)c1ccc(O)c(OC)c1 u=% result_value=103
compound=C[C@H]1[C@H](C)CC[C@]2(CO)CC[C@]3(C)C(=CC[C@@H]4[C@@]5(C)Cc6c([nH]c7ccccc67)C(C)(C)[C@@H]5CC[C@]43C)[C@H]12 u=% result_value=96.9
compound="O=C(c1ccccc1)N1N=C(c2ccc(-n3ccc(C(F)(F)F)n3)cc2)CC1c1ccc[nH]1 (stereo unspecified)" u=% result_value=128
compound=O=c1[nH]nc(-c2ccc(Br)cc2)cc1Cc1ccc(O)cc1 u=% result_value=92.9
compound="CCN1C(=O)N(CC)C2NC(SC)=NC21 (stereo unspecified)" u=% result_value=104
compound=CC1(C)CN(c2cnc(C(=O)Nc3cc(F)cc4cccnc34)cn2)CCN1 u=% result_value=79.5
compound=COc1ccc(C(=O)/C=C/c2ccc(OCc3ccccc3)c(OC)c2)cc1OC u=% result_value=91
compound="CC1NC(=S)NC(=O)/C1=C/c1cc(=O)oc2c1ccc1ccccc12 (stereo unspecified)" u=% result_value=94.4
compound=COc1cc(-c2cc(=O)oc3cc(O)ccc23)c(OC)c2c1OCO2 u=% result_value=125
compound=S=c1[nH]cccc1-c1nnc2n1Nc1nc3ccc(Cl)cc3cc1CS2 u=% result_value=94.3
compound="Clc1ccc(C2CC(c3cccc(Nc4ccncc4)c3)=NN2c2ccccc2)cc1 (stereo unspecified)" u=% result_value=81.4
compound=Clc1ccc2c(c1)c(-c1ccccc1)nc1nncn12 u=% result_value=107
compound=O=C(N/N=C/c1cccc(O)c1)c1ccccc1Nc1cccc(C(F)(F)F)c1 u=% result_value=78.4
compound=COc1cccc(CCC(=O)c2cc3c(N)c(C(=O)Nc4ccccc4)sc3nc2C)c1 u=% result_value=56.8
